- TESTED ON: T1, RasGAP SH2-SH3-SH2 construct (residues 174 to 444), WT (human, UniProt P20936 174-444, C236S | C261S | C372S | C402S)
- T1 sequence: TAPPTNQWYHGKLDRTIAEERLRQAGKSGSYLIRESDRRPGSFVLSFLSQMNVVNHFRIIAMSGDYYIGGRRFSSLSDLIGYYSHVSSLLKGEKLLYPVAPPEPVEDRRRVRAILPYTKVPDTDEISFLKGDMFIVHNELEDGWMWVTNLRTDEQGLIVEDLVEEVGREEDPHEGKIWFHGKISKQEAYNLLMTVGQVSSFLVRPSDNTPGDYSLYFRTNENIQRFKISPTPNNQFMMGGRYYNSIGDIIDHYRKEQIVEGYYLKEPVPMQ
- PROTOCOL DETAILS: ITC; average
[ ]: non-standard residue; d: D form. pY = N[C@@H](Cc1ccc(OP(=O)(O)O)cc1)C(=O)O
VALUE KIND: pKd
Scale: negative log10 of molar concentration, which is what pKd denotes.

Given the entry Ac-DPSD[pY]AEPMDAVVKPRNEEENI[pY]SVPHDS-NH2 (p190RhoGAP (ARHGAP35), UniProt Q9NRY4, residues 1083-1111, 29 amino acids; also called p190RhoGAP peptide; ARHGAP35 peptide; source: synthetic peptide, bought: GenScript) [p190RhoGAP phosphopeptide, residues 1083 to 1111 (pY1087, pY1105)] , report its measured pKd.
8.30
